- Test system: Caco-2 cells
- assay.explanation: Lactate dehydrogenase (LDH) release assay
- Assay type: cell-based
- details: Caco-2, 24 h exposure, 50% release of LDH
quantity: pIC50
Scale: negative log10 of molar concentration, which is what pIC50 denotes.

get_value(item= CCCCCCCCCCCCCCCC(=O)OC[C@H]1O[C@@H](O[C@H]2[C@H](O)[C@@H](O)[C@@H](O)O[C@@H]2CO)[C@H](O)[C@@H](O)[C@H]1O [Lactose palmitate] , readout=pIC50) returns 3.79

----------
- System: Caco-2 cells
- assay.explanation: Lactate dehydrogenase (LDH) release assay
- Type: cell-based
- details: Homo sapiens, Caco-2, 24 h, Caco-2, 24 h exposure, 50% release of LDH
For each of the compounds below, state its IC50.
The figure you give is taken to be in µM; do not add the unit.

get_value(item= CCCCCCCCCCCC(=O)OC[C@H]1O[C@@H](O[C@H]2[C@H](O)[C@@H](O)[C@@H](O)O[C@@H]2CO)[C@H](O)[C@@H](O)[C@H]1O [Lactose laurate] , readout=IC50) returns 597

get_value(item= CCCCCCCCCCCCCCCC(=O)OC[C@H]1O[C@@H](O[C@H]2[C@H](O)[C@@H](O)[C@@H](O)O[C@@H]2CO)[C@H](O)[C@@H](O)[C@H]1O [Lactose palmitate] , readout=IC50) returns 194

get_value(item= CCCCCCCCCCCCCC(=O)OC[C@H]1O[C@@H](O[C@H]2[C@H](O)[C@@H](O)[C@@H](O)O[C@@H]2CO)[C@H](O)[C@@H](O)[C@H]1O [Lactose myristate] , readout=IC50) returns 194
